# targetDesc: human A2b receptor subtype (Homo sapiens, UniProt P29275)
# Construct: expressed in transfected cells; host or cells: HEK293
# Sequence (P29275 whole entry): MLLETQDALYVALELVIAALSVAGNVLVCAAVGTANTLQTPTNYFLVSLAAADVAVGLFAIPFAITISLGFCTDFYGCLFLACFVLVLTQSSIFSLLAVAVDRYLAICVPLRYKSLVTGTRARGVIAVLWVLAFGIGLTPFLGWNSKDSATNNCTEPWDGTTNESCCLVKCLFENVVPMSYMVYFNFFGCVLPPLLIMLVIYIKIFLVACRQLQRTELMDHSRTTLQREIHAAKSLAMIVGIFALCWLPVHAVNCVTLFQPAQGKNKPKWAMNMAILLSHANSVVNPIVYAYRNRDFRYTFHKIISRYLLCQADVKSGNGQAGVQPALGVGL
# runDescription: Adenosine 2b receptor subtype competition radioligand binding, [3H]DPCPX, HEK293 membranes
# experimentalContext: Table 14; read-out: Binding Data Ki (nM) A2B
valueKind: Ki

query: Consider the molecule CC(=O)NCCNc1nc(-c2ccccc2)nc2[nH]c(Cn3ccccc3=O)cc12 [CDS-143988] and give its recorded Ki.
result: 47 nM

====

# targetDesc: human A1 receptor subtype (Homo sapiens)
# Sequence (P30542 whole entry): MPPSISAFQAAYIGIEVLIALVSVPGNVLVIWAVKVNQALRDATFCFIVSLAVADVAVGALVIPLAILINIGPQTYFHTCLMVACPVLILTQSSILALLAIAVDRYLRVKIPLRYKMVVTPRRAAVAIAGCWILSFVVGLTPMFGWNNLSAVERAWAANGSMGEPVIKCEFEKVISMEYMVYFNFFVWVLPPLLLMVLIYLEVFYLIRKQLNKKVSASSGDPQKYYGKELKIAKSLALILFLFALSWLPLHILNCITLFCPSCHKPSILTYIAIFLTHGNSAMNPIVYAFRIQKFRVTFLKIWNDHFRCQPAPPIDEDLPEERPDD
# runDescription: biochemical
Measured Ki by item

>>> assayresult("CC(=O)NCCNc1nc(-c2ccccc2)nc2[nH]c(COc3ccccc3)cc12 [CDS-129851]")
"0.0417 µM"

Lab note: next molecule to report on.
query: Consider the molecule Cc1[nH]c2nc(-c3ccccc3)nc(NCCCNC(=O)CCN)c2c1C [CDS-121181] and give its recorded Ki.
result: 75 µM

====

# targetDesc: human A2a receptor subtype (Homo sapiens)
# Sequence (P29274 whole entry): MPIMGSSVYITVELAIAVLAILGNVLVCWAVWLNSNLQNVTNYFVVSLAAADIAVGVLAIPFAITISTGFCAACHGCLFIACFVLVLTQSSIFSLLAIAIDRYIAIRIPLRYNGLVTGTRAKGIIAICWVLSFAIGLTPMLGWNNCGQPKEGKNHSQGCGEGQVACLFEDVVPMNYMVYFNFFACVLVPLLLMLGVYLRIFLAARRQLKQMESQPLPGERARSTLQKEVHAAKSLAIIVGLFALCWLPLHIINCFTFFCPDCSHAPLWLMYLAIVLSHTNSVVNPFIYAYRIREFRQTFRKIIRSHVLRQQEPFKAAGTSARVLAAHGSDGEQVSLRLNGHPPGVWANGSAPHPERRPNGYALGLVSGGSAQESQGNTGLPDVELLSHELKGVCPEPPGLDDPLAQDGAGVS
valueKind: pKi
Reminder that pKi means the negative base-10 logarithm of the concentration expressed in mol/L.

query: Find the measured pKi of Cc1[nH]c2nc(-c3cccs3)nc(NC3CCC(O)CC3)c2c1C (stereo not shown) [CDS-090890] with human A2a receptor subtype (Homo sapiens) as test system.
result: 6.14
